- System: P388 leukemia ip, CD2F1 mice, survival T/C
- Assay Details: NCI In Vivo Anticancer Drug Screen. Data for tumor model P388 Leukemia (intraperitoneal) in CD2F1 (CDF1) mice
- Test Parameters: endpoint: median survival time; dose: 200.0 mg/kg/injection; schedule: Q01DX009 (ip); vehicle: saline; higher = longer survival
- Experimental: The antitumor activity of compounds was measured in mice bearing transplantable tumors. Survival or tumor size were measured and the results are expressed as the measurement made in the treated group (T) divided by the measurement made in the vehicle treated control group (C). The tumor model used in this assay is P388 Leukemia (intraperitoneal) in CD2F1 (CDF1) mice
Toxic doses and inconclusive results are not listed.
Quantity Kind: T/C

// below: answered compounds
* Nc1nc(N)nc(-c2ccccc2Cl)n1 | 117 % of control
* O[P+]1(c2ccccc2)OC(C(F)(F)F)(C(F)(F)F)C(C(F)(F)F)(C(F)(F)F)O1 | 107 % of control
* CC1(C)OC2(CC1C1(C)C=CC(=O)O1)CC1(O)C(CCC34CC13C(=O)OC4c1ccoc1)O2 (centres undefined) | 90 % of control
* NC(=O)c1cc(Br)ccc1[N+](=O)[O-] | 87 % of control
* CNC(=O)N(C)CP(=O)(CN(C)C(=O)NC)CN(C)C(=O)NC | 99 % of control

**Q:** Supply measured T/C of C[Si](C)(C)c1cc[c]([Sn]([CH3])([CH3])[CH3])cc1 in your reply.
**A:** 93 % of control

**Q:** Return value of T/C for input CCN(CC)CCC1CN(C(C)C)CC1(c1ccccc1)c1ccccc1 (centres undefined) , no commentary.
**A:** 116 % of control

**Q:** Tell me T/C reported for O=C1CCC(CBr)(C(=O)O)O1 (centres undefined)
**A:** 100 % of control

**Q:** Given the compound O=C(O)CCCC(=O)c1ccccc1 , write its reported T/C.
**A:** 108 % of control

**Q:** Answer with the recorded T/C of CCCOCC(=O)OC only.
**A:** 100 % of control

* * *

- System: P388 leukemia ip, CD2F1 mice, survival T/C
- Assay Details: NCI In Vivo Anticancer Drug Screen. Data for tumor model P388 Leukemia (intraperitoneal) in CD2F1 (CDF1) mice
- Test Parameters: endpoint: median survival time; dose: 50.0 mg/kg/injection; schedule: Q01DX009 (ip); vehicle: Klucel (hydroxypropylcellulose) (HPC); higher = longer survival
Toxic doses and inconclusive results are not listed.
Quantity Kind: T/C

Below: 5 compounds and their reported T/C.
* O=C(CC1(O)C(=O)Nc2ccccc21)c1ccccn1 (configuration not stated) | 102 % of control
* O=S(=O)(NCCSSCCNS(=O)(=O)c1ccc(Cl)cc1)c1ccc(Cl)cc1 | 92 % of control
* Cc1nc(-c2ccccc2)oc1C(N)=O | 108 % of control
* Brc1ccc(-c2cc(-c3cccs3)cc(-c3ccccc3)n2)cc1 | 100 % of control
* COc1ccc(NC(=O)C2C(=O)C(=O)N(c3ccc(OC)cc3OC)C2=O)c(OC)c1 (configuration not stated) | 98 % of control

// switching to the query compound
**Q:** Specify T/C for CNC(=O)Nc1ccccc1C(=O)NN and stop.
**A:** 109 % of control

* * *

- Tested on: P388 leukemia ip, CD2F1 mice, survival T/C
- Assay Details: NCI In Vivo Anticancer Drug Screen. Data for tumor model P388 Leukemia (intraperitoneal) in CD2F1 (CDF1) mice
- Test Parameters: endpoint: median survival time; dose: 200.0 mg/kg/injection; schedule: Q01DX009 (ip); vehicle: saline with Tween-80; higher = longer survival
Toxic doses and inconclusive results are not listed.
The following compounds are shown together with reported T/C values.

Reference set, count: 2
• OCC1CC=CCC1CO (stereo not given) = 100 % of control
• O=C(NC(=NC(=Nc1ccc([N+](=O)[O-])cc1)c1ccccc1)c1ccccc1)c1ccccc1 = 90 % of control

**Q:** Provide T/C value for the following compound: CC(C)=CC1C(C(=O)OCc2ccc(C)cc2C)C1(C)C (stereo not given)
**A:** 109 % of control

**Q:** Complete the entry with T/C for NC(Cc1cccs1)C(=O)O (stereo not given)
**A:** 100 % of control

**Q:** Retrieve T/C measured for CC(C)(C)c1ccc(-c2nnc(C(F)(F)F)nn2)cc1 and print it.
**A:** 108 % of control

**Q:** Let me know recorded T/C for CCCC1OCC(CC)C(CCC)O1 (stereo not given) , thanks.
**A:** 100 % of control

**Q:** Specify measured T/C for CCOC1OCN(CCCN(C)C)CC1(C)C (stereo not given) .
**A:** 123 % of control
